target: Voltage-gated inwardly rectifying potassium channel KCNH2 (Homo sapiens); assay: qHTS Assay for Small Molecule Inhibitors of the Human hERG Channel Activity (AID 588834); settings: U2OS BacMam hERG, FluxOR thallium flux fluorescence; series mostly up to 46.1 µM;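 note: lower thallium flux fluorescence means stronger hERG block; nearly all actives have a fitted effect of over 50% in size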
Inconclusive results are not listed. The source made the active and inactive calls. Calls come from the whole dose curve; as a rule, active = well fitted inhibition curve with a large enough effect; inconclusive = small, poorly fitted or top-dose-only effect; inactive = flat fitted curve, though single readings scatter.
Classes used: T (active), F (inactive)

compound | qualitativeLabel
Oc1ccc(/C=C/c2cc(O)cc(O)c2)cc1 | F
CCCCC(CC)CCC(CC(C)C)OS(=O)(=O)O (centres undefined) | F
CN1CCC(OC(=O)C(Oc2ccc(Cl)cc2)Oc2ccc(Cl)cc2)CC1 | T
CC(C)NCC(O)COc1ccccc1-n1cccc1 (centres undefined) | T
CCCCC[C@H](O)/C=C/[C@@H]1[C@H]2C/C(=C/CCCC(=O)O)O[C@H]2C[C@H]1O | F
CCCCO | F
CN[C@@H]1[C@@H](O[C@H]2O[C@H](CO)[C@@H](N)[C@H](O)[C@H]2O)O[C@H]2C[C@@H](N)[C@@H](O[C@H]3[C@H](O)[C@@H](O)[C@H](N)C[C@@H]3N)O[C@@H]2[C@@H]1O | F
C[C@H](O)CN(C)C | F
CCCCC/C=C\C/C=C\C/C=C\CCCCC(=O)O | F

----------
assay: qHTS assay for environmental chemicals that activate the Aryl hydrocarbon Receptor (AhR) signaling pathway (AID 651777); conditions: 1A2-DRE human hepatoma cells, luciferase, 24 h; stronger effect = higher value; note: % of control where 0% means no effect; nearly all actives have a fitted effect of over 15% in size
Inconclusive results are not listed.
assayEndpoint: activation (%)

molecule | unitInfo | recordedValue
CCCCCCCCCCCCCCCCCC(=O)OC[C@@H](O)[C@H]1OC[C@H](O)[C@H]1O | % | 0.366
CC/C=C\C/C=C\C/C=C\CCCCCCCC(=O)O | % | 0.211
CC(C)[C@@H]1CC[C@@H](C)C[C@H]1O | % | -0.378
CC1=CCC2CC1C2(C)C (stereo not drawn) | % | 1.2
O.O.O.O.O.O.O.O=S(=O)([O-])[O-].[Co+2] | % | -0.475
CC(C)CCC[C@@H](C)[C@H]1CC[C@H]2[C@@H]3CC=C4C[C@@H](O)CC[C@]4(C)[C@H]3CC[C@]12C | % | -1.61
Oc1cccc(O)c1O | % | -0.8
OCc1ccccc1 | % | 0.173
Cc1ccc(S(=O)(=O)O)cc1C | % | -1.47
C[Si](C)(C)O[Si](C)(C)C | % | 1.01
O=C(OCc1ccccc1)c1ccc(O)cc1 | % | 0.611
C=CC(C)(O)CC/C=C(\C)CCC=C(C)C (stereo not drawn) | % | 0.207
C/C=C/C=C/C(=O)O | % | 0.214

----------
tested on: CP260; experiment: qHTS profiling for inhibitors of Plasmodium falciparum proliferation (AID 504749); note: nearly all actives have a fitted effect of over 60% in size; settings: P. falciparum in erythrocytes, SYBR Green DNA, 72 h; series mostly up to 28.7 µM
Inconclusive results are not listed. Activity calls are given as the source filed them. The call rests on the fitted dose curve; in most records, active means well fitted inhibition curve with a large enough effect; inconclusive means small, poorly fitted or top-dose-only effect; inactive means flat fitted curve, though single readings scatter.
Outcome codes: 1 (yes) for active, 0 (no) for inactive

compound | targetOfAssay | qualitativeLabel
COC(=O)CC[C@H](N)C(=O)O | CP260 | 0 (no)
C=CCCCCCCCCC(=O)OC | CP260 | 0 (no)
CC(C)[C@@H](N)C(=O)O | CP260 | 0 (no)
FC(F)(F)COCC(F)(F)F | CP260 | 0 (no)
CC/C(=C(/CC)c1ccc(OP(=O)(O)O)cc1)c1ccc(OP(=O)(O)O)cc1 | CP260 | 0 (no)
CC[C@H]1OC(=O)[C@H](C)[C@@H](O[C@H]2C[C@@](C)(OC)[C@@H](O)[C@H](C)O2)C(C)[C@@H](O[C@@H]2O[C@H](C)C[C@H](N(C)C)[C@@H]2O)[C@](C)(OC)C[C@@H](C)C(=O)[C@H](C)[C@@H](O)[C@]1(C)O (stereo partly drawn) | CP260 | 1 (yes)
CCCCCCCCCCCCCCCCOCCOCCOCCOCCOCCOCCOCCOCCOCCOCCOCCOCCOCCOCCOCCOCCOCCOCCOCCOCCO | CP260 | 1 (yes)
CN(CCO)CC(O)Cn1cnc2c1c(=O)n(C)c(=O)n2C (stereo not drawn) (tested in a mixture with another compound) | CP260 | 0 (no)
Cc1cc(C(=O)NCCc2ccc(S(=O)(=O)NC(=O)NN3CCCCCC3)cc2)no1 | CP260 | 0 (no)
NC(=O)[C@H]1O[C@@H](O)[C@H](O)[C@@H](O)[C@@H]1O | CP260 | 0 (no)
COc1ccc(/C=N/NC(=O)c2ccncc2)c(C(=O)O)c1OC | CP260 | 0 (no)
CNC(=O)C[C@@H](N)C(=O)N[C@@H](C(=O)N[C@@H]1C(=O)N2[C@@H]1SC(C)(C)[C@@H]2C(=O)O)c1ccc(O)cc1 | CP260 | 0 (no)
CCCCCCCCCC(=O)NO | CP260 | 0 (no)
OC1OC[C@@H](O)[C@H](O)[C@@H]1O (stereo partly drawn) | CP260 | 0 (no)
C[C@H](CCC(=O)O)[C@H]1CC[C@H]2[C@@H]3CC[C@@H]4C[C@H](O)CC[C@]4(C)[C@H]3C[C@H](O)[C@]12C | CP260 | 0 (no)
O.O.O.O.O.O.O.O=S(=O)([O-])[O-].[Co+2] | CP260 | 1 (yes)
COc1ccc2c(=O)c(C)c(-c3ccccc3)oc2c1CN(C)C | CP260 | 0 (no)
OB(O)O | CP260 | 0 (no)
Cc1cc(C)c(NC(=O)C[C@H](CC(=O)O)c2cccc3ccccc23)c(C(=O)N2CCC3(CCCC3)CC2)c1 | CP260 | 0 (no)
CC(O)CN(C)C (stereo not drawn) | CP260 | 0 (no)
C[C@H]1O[C@@H](O[C@H]2[C@@H](O)C[C@H](O[C@H]3[C@@H](O)C[C@H](O[C@H]4CC[C@@]5(C)[C@H](CC[C@@H]6[C@@H]5C[C@@H](O)[C@]5(C)[C@@H](C7=CC(=O)OC7)CC[C@]65O)C4)O[C@@H]3C)O[C@@H]2C)C[C@H](O)[C@@H]1O | CP260 | 0 (no)
CC(C)(Oc1ccc(C2CCCc3ccccc32)cc1)C(=O)O (stereo not drawn) | CP260 | 0 (no)
CCCc1nc(C(C)(C)O)c(C(=O)OCc2oc(=O)oc2C)n1Cc1ccc(-c2ccccc2-c2nn[nH]n2)cc1 | CP260 | 0 (no)
CCc1ccc(S(=O)(=O)O)cc1 | CP260 | 0 (no)
O=C1c2ccccc2CN2C(=O)c3ccccc3CN12 | CP260 | 0 (no)
CC1(C)S[C@@H]2[C@H](NC(=O)C3(N)CCCCC3)C(=O)N2[C@H]1C(=O)O | CP260 | 0 (no)
Cc1ccc(S(=O)(=O)NCl)cc1 | CP260 | 0 (no)
C#C[C@]1(O)CC[C@@H]2[C@H]3CCC4=CC(=O)CC[C@H]4[C@H]3C(=C)C[C@@]21CC | CP260 | 0 (no)
O=P(O)(O)OP(=O)(O)OP(=O)(O)O | CP260 | 0 (no)
[O]=[Bi][O][Bi]=[O] | CP260 | 0 (no)
CC(CC=O)CCCC(C)(C)O (stereo not drawn) | CP260 | 0 (no)
COc1ccc(-c2noc(CC(=O)O)c2-c2ccc(OC)cc2)cc1 | CP260 | 0 (no)
O=C(NNCS(=O)(=O)O)c1ccncc1 | CP260 | 0 (no)
CCCCCCCCCCCCCCCCCC[N+](C)(C)CCC[Si](OC)(OC)OC | CP260 | 0 (no)
CCN(CC)C(=S)S | CP260 | 0 (no)
CCC(Cc1c(I)cc(I)c(O)c1I)C(=O)O (stereo not drawn) | CP260 | 0 (no)
CC(=O)Nc1ccc(OC(=O)c2ccccc2O)cc1 | CP260 | 0 (no)
O=C(O)[C@H]1CN(C/C=C/P(=O)(O)O)CCN1 | CP260 | 0 (no)
CCCCCc1ccc(C)cc1O | CP260 | 0 (no)
C[C@]12CC[C@@H]3c4ccc(OC(=O)c5ccccc5)cc4CC[C@H]3[C@@H]1CC[C@@H]2O | CP260 | 1 (yes)
NC(=O)C1c2ccccc2CCc2ccccc21 | CP260 | 0 (no)
CCOC(=O)c1cc(-c2ccccc2)nc2ccc(C)cc12 | CP260 | 0 (no)
NC(=S)NS(=O)(=O)c1ccc(N)cc1 | CP260 | 0 (no)

----------
system: CP262; assay: qHTS profiling for inhibitors of Plasmodium falciparum proliferation (AID 504749); note: nearly all actives have a fitted effect of over 60% in size; conditions: P. falciparum in erythrocytes, SYBR Green DNA, 72 h; series mostly up to 28.7 µM
Inconclusive results are not listed. Active and inactive are the calls of the source. Calls follow the shape of the dose curve; as a rule, active = well fitted inhibition curve with a large enough effect; inconclusive = small, poorly fitted or top-dose-only effect; inactive = flat fitted curve, though single readings scatter.

compound | outcome
COc1cc(C)c(/C=C/C(C)=C/C=C/C(C)=C/C(=O)O)c(C)c1C | inactive
O=C1[O][Bi][O]c2ccccc21 | inactive
C/C=C/C=C/C(=O)O | inactive
CC(=O)[O][Al][O]C(C)=O | inactive
CCCCCCOC(=O)c1cccnc1 | inactive
NC(=O)C1c2ccccc2CCc2ccccc21 | inactive
OCCCNc1ccccc1 | inactive
CS(=O)(=O)OCC(O)C(O)COS(C)(=O)=O (configuration not stated) | inactive
OCc1ccccc1 | inactive
CC1CCCCN1CCCOC(=O)c1ccccc1 (configuration not stated) | inactive
O=C(OCc1ccccc1)c1cccnc1 | inactive
CCOc1ccc(S(=O)(=O)O)c2cccnc12 | inactive
CC(C)C1=CC2=CC[C@@H]3[C@](C)(CCC[C@@]3(C)C(=O)O)[C@H]2CC1 | inactive
CCCCCCCCCCCCCCCCCCCCCC(=O)Nc1ccn([C@@H]2O[C@H](CO)[C@@H](O)[C@@H]2O)c(=O)n1 | inactive
COc1cc2c(cc1OC)[C@@H](Cc1cc(OC)c(OC)c(OC)c1)[N+](C)(CCCOC(=O)CC/C=C/CCC(=O)OCCC[N+]1(C)CCc3cc(OC)c(OC)cc3[C@H]1Cc1cc(OC)c(OC)c(OC)c1)CC2 (some centres not stated) | inactive
Cc1c(C)c2c(c(C)c1OC(=O)CCC(=O)O)CC[C@@](C)(CCC[C@H](C)CCC[C@H](C)CCCC(C)C)O2 | inactive
O=C(O)CCC/C=C\C[C@@H]1[C@@H](/C=C/[C@@H](O)COc2cccc(Cl)c2)[C@H](O)C[C@@H]1O | inactive
Cc1ncc[nH]1 | inactive
O=c1[nH]c(=O)n([C@H]2C[C@H](O)[C@@H](CO)O2)cc1/C=C/Br | inactive
C[C@]12CCC(=O)C[C@@H]1CC[C@@H]1[C@@H]2CC[C@]2(C)C=CC[C@@H]12 | inactive
O=C(O)CC/C=C\CC[C@@H]1[C@@H](N2CCCCC2)[C@@H](O)C[C@@H]1OCc1ccc(-c2ccccc2)cc1 | inactive
CN(C)c1ccc(C(=C2C=CC(=[N+](C)C)C=C2)c2c(O)c(S(=O)(=O)[O-])cc3cc(S(=O)(=O)O)ccc23)cc1 | inactive
O=C1CCC(=O)N1CO | inactive
COC(=O)[C@@H](N)CS | inactive
NCC[C@H](O)C(=O)N[C@@H]1C[C@H](N)[C@@H](O[C@H]2O[C@H](CN)[C@@H](O)[C@H](O)[C@H]2O)[C@H](O)[C@H]1O[C@H]1O[C@H](CO)[C@@H](O)[C@H](N)[C@H]1O | inactive
Cc1cc2nc3c(=O)[nH]c(=O)nc-3n(C[C@H](O)[C@H](O)[C@H](O)COP(=O)(O)OP(=O)(O)OC[C@H]3O[C@@H](n4cnc5c(N)ncnc54)[C@H](O)[C@@H]3O)c2cc1C | inactive
COc1ccc2nc(NC(=O)Nc3ccccc3)sc2c1 | inactive
O=C(OCc1ccccc1)c1ccc(O)cc1 | inactive
S=C=Nc1ccc(N=C=S)cc1 | inactive
CC(C)(Oc1ccc(C2CCCc3ccccc32)cc1)C(=O)O (configuration not stated) | inactive
CCOC(=O)Cc1ccc(-c2ccccc2)cc1 | inactive
O=P(O)(O)OP(=O)(O)O | inactive
O=C(O)COc1ccc(CCNS(=O)(=O)c2ccccc2)s1 | inactive
CS(=O)(=O)c1ccc([C@@H](O)[C@@H](COC(=O)CN)NC(=O)C(Cl)Cl)cc1 | inactive
CC(C)(COP(=O)(O)OP(=O)(O)OC[C@H]1O[C@@H](n2cnc3c(N)ncnc32)[C@H](O)[C@@H]1OP(=O)(O)O)C(O)C(=O)NCCC(=O)NCCS (some centres not stated) | inactive
CC(C)c1nc(N(C)S(C)(=O)=O)nc(-c2ccc(F)cc2)c1/C=C/C(O)CC(O)CC(=O)O (configuration not stated) | inactive
O=C(CCCN1CCC(C(=O)c2ccc(F)cc2)CC1)c1ccc(F)cc1 | inactive
N[C@@H](Cc1cc(I)c(Oc2ccc(O)c(I)c2)c(I)c1)C(=O)O | inactive
Cn1c(=O)c2c(ncn2CCOC(=O)C(C)(C)Oc2ccc(Cl)cc2)n(C)c1=O | inactive
C=CCN1CCCC1CNC(=O)c1cc(S(N)(=O)=O)cc(OC)c1OC (configuration not stated) | inactive
CC/C(=C(/CC)c1ccc(OP(=O)(O)O)cc1)c1ccc(OP(=O)(O)O)cc1 | inactive
NC(=O)[C@@H]1CCCN1C(=O)[C@H](Cc1cnc[nH]1)NC(=O)[C@@H]1CCC(=O)N1 | inactive
